The following compounds are listed with their measured melting point values.

IN: Bench note: what melting point did Fc1ccc2c(C3CCN(CCCOc4ccc5[nH]ccc5c4)CC3)noc2c1 [Example 140] show?
OUT: 118 to 121 °C

IN: // lookup melting point for `C[C@@H](CO)CN1CCC(c2noc3cc(F)ccc23)CC1.O=C(O)/C=C/C(=O)O`
OUT: 114 to 115 °C

IN: melting point for `CCOC(=O)CCN1CCC(c2noc3cc(F)ccc23)CC1.O=C(O)/C=C/C(=O)O` ?
OUT: 135 to 136 °C

IN: // query melting point value for entry COc1cc(C(C)=O)ccc1OCCCN1CCN(c2n[nH]c3cc(F)ccc23)CC1 [Example 12]
OUT: 135 to 137 °C

IN: Look at this compound and give its reported melting point. `Cl.O=C1[C@H]2CCCC[C@H]2C(=O)N1CCCCN1CCC(c2noc3cc(F)ccc23)CC1`
OUT: 229 to 231 °C

IN: Need melting point, item Fc1ccc2c(C3CCN(CCN4CCOCC4)CC3)noc2c1 [Example 116]
OUT: 131 to 132 °C

Data provenance: patent USRE39198E1
